Data origin, for the record: ChEMBL document CHEMBL5344477

assay: Oral bioavailability in Sprague-Dawley rat at 2.5 mg/kg measured upto 24 hrs by LC-MS/MS analysis; assay type: ADME, organism-based; settings: in vivo
reportedEndpoint: bioavailability (%)
The reply should be a number in %, with the unit left off.

QUERY: Returns the measured bioavailability for the input compound. Input: CC(C)n1cnnc1-c1cccc(NC(=O)c2cc3c(cc2F)OC(C)(C)C(=O)N3C)n1
RESULT: 72.2

QUERY: Now consider O=C1COc2cc(F)c(C(=O)Nc3cccc(-c4nncn4C4CC4)n3)cc2N1 and answer again.
RESULT: 83.6

QUERY: And then CC(C)n1cnnc1-c1cccc(NC(=O)c2cc3c(cc2F)OC(C)(C)C(=O)N3)n1 , what is it?
RESULT: 95

QUERY: Can you handle O=C1CCc2cc(F)c(C(=O)Nc3cccc(-c4nncn4C4CC4)n3)cc2N1 next?
RESULT: 57.4
